- target: hDPP-IV (Homo sapiens, UniProt P27487)
- Sequence (P27487 whole entry): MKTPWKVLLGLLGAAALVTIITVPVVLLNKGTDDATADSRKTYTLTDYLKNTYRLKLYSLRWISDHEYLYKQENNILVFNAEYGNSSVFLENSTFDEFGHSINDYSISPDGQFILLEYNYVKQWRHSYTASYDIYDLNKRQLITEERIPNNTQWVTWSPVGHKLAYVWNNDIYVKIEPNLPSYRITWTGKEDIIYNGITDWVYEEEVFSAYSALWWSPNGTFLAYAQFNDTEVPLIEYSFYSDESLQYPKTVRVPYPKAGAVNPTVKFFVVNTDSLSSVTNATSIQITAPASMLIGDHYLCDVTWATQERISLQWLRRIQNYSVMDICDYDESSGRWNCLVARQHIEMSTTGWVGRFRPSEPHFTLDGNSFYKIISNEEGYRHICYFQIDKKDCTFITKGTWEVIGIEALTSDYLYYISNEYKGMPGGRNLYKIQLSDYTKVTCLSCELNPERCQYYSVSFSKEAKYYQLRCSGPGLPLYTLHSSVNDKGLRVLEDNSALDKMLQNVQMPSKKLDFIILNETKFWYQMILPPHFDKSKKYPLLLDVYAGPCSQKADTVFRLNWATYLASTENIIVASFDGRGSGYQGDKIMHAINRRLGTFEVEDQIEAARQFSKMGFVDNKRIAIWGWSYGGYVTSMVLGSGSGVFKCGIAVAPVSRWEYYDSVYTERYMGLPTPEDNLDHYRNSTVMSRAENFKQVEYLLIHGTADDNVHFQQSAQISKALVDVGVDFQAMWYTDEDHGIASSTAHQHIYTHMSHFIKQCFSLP
Peptide text beside a SMILES is read from it.
Reported IC50 values follow for various compounds
State just the number; it will be interpreted in µM.

Known IC50 results, listed for orientation:
C[C@H](NC(=O)[C@H](C)NC(=O)[C@@H](N)Cc1c[nH]c2ccccc12)C(=O)O [WAA] (H-Trp-Ala-Ala-OH)    275
CC(C)[C@H](NC(=O)[C@@H](N)Cc1c[nH]c2ccccc12)C(=O)N[C@@H](CO)C(=O)O [WVS] (H-Trp-Val-Ser-OH)    247
N=C(N)NCCC[C@H](NC(=O)[C@@H](N)Cc1c[nH]c2ccccc12)C(=O)N[C@@H](Cc1c[nH]cn1)C(=O)O [WRH] (H-Trp-Arg-His-OH)    277
N=C(N)NCCC[C@H](NC(=O)[C@@H](N)Cc1c[nH]c2ccccc12)C(=O)N[C@@H](CC(=O)O)C(=O)O [WRD] (H-Trp-Arg-Asp-OH)    204
N[C@@H](Cc1c[nH]c2ccccc12)C(=O)N1CCC[C@H]1C(=O)N[C@@H](Cc1ccc(O)cc1)C(=O)O [WPY] (H-Trp-Pro-Tyr-OH)    304

Here is another compound to look at.
The compound C[C@@H](O)[C@H](NC(=O)[C@@H]1CCCN1C(=O)[C@@H](N)Cc1c[nH]c2ccccc12)C(=O)O [WPT] (H-Trp-Pro-Thr-OH) on hDPP-IV (Homo sapiens, UniProt P27487): IC50 was 435

* * *

- target: hDPP-IV (Homo sapiens, UniProt P27487)
Peptide text beside a SMILES is read from it.
experimentalEndpoint: IC50 (µM)
Give just the numeric value; µM need not be written.

N=C(N)NCCC[C@H](NC(=O)[C@@H](N)Cc1c[nH]c2ccccc12)C(=O)N[C@@H](CCC(N)=O)C(=O)O [WRQ] (H-Trp-Arg-Gln-OH)    286
CC(C)[C@H](NC(=O)[C@@H](N)Cc1c[nH]c2ccccc12)C(=O)N[C@@H](CS)C(=O)O [WVC] (H-Trp-Val-Cys-OH)    232
N[C@@H](Cc1c[nH]c2ccccc12)C(=O)N1CCC[C@H]1C(=O)NCC(=O)O [WPG] (H-Trp-Pro-Gly-OH)    135

Next:
The reported IC50 value, hDPP-IV (Homo sapiens, UniProt P27487), for CC[C@H](C)[C@H](NC(=O)[C@H](C)NC(=O)[C@@H](N)Cc1c[nH]c2ccccc12)C(=O)O [WAI] (H-Trp-Ala-Ile-OH) reads 199

* * *

- target: hDPP-IV (Homo sapiens)
Peptide text beside a SMILES is read from it.
Assign labels as follows, please: Y for IC50 below 300 µM; N for IC50 equal to or exceeding 300 µM.

Example cases with answers are listed next.
CC(C)[C@H](NC(=O)[C@@H](N)Cc1c[nH]c2ccccc12)C(=O)N[C@@H](Cc1ccc(O)cc1)C(=O)O [WVY] (H-Trp-Val-Tyr-OH)    Y
CC(C)[C@H](NC(=O)[C@@H](N)Cc1c[nH]c2ccccc12)C(=O)N[C@@H](CC(=O)O)C(=O)O [WVD] (H-Trp-Val-Asp-OH)    N
C[C@H](NC(=O)[C@@H](N)Cc1c[nH]c2ccccc12)C(=O)N[C@@H](Cc1c[nH]cn1)C(=O)O [WAH] (H-Trp-Ala-His-OH)    Y
CC(C)[C@H](NC(=O)[C@@H]1CCCN1C(=O)[C@@H](N)Cc1c[nH]c2ccccc12)C(=O)O [WPV] (H-Trp-Pro-Val-OH)    N
N[C@@H](Cc1c[nH]c2ccccc12)C(=O)N1CCC[C@H]1C(=O)N[C@@H](Cc1ccccc1)C(=O)O [WPF] (H-Trp-Pro-Phe-OH)    Y

In plain terms, does N=C(N)NCCC[C@H](NC(=O)[C@@H](N)Cc1c[nH]c2ccccc12)C(=O)N[C@@H](CO)C(=O)O [WRS] (H-Trp-Arg-Ser-OH) come in under 300 µM for IC50? Y

These measurements were taken from paper PMC10601436.
